- tested-on: hCMV glycoprotein B (gB; HEK293T transfectant) (hCMV, UniProt P06473 32-906)
- Sequence (P06473 32-906 limits assumed): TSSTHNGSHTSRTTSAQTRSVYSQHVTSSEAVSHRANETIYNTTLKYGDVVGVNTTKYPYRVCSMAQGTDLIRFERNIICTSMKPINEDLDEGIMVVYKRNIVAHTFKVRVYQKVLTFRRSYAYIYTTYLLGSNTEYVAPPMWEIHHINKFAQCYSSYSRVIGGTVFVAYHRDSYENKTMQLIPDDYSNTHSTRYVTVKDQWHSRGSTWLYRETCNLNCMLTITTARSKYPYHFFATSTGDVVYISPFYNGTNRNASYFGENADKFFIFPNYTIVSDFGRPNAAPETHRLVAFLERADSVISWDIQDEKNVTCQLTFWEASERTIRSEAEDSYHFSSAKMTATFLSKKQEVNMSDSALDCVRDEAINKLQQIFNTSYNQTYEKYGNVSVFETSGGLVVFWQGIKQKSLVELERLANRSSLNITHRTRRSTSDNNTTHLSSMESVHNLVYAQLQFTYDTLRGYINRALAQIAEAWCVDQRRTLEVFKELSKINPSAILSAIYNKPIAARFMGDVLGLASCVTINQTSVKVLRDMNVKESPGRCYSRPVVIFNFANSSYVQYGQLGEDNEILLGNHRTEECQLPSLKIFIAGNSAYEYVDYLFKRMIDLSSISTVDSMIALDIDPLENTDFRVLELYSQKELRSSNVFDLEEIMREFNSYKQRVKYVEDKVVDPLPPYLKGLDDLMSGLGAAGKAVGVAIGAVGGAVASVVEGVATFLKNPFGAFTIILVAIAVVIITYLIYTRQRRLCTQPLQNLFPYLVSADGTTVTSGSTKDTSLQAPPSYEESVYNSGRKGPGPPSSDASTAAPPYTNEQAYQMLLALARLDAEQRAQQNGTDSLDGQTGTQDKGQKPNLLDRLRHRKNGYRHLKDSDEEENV
- assay-name: cell-based or functional assay
outcome-measure: 90% neutralization VR1814, MRC-9 (µg/mL)
Note: unit µg/mL is implicit; provide only the numeric part.

Query: What does the record list as 90% neutralization VR1814, MRC-9 for 2B11 (antibody, V domains shown, human IgG; also called 2B11-biotin) VH: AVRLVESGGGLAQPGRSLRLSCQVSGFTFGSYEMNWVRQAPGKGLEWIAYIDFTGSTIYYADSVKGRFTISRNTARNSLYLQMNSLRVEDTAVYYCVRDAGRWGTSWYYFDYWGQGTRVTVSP VL: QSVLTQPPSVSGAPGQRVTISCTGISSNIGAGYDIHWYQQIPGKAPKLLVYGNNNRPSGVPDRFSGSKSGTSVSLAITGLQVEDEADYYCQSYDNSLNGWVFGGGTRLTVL ?
Response: 0.75

Query: May I ask what 90% neutralization VR1814, MRC-9 has been recorded for 4H9 (antibody, V domains shown, human IgG; also called 4H9-biotin; 4H9.6) VH: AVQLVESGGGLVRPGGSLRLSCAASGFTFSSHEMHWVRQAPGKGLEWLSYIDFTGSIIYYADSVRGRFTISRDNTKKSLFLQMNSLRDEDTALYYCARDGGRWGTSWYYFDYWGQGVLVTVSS VL: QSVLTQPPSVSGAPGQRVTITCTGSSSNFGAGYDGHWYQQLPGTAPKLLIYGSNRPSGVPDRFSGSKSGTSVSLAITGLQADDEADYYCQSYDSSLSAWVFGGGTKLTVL ?
Response: 10

Query: Value lookup for 90% neutralization VR1814, MRC-9; key = 5F1 (antibody, V domains shown, human IgG; also called 5F1-biotin) VH: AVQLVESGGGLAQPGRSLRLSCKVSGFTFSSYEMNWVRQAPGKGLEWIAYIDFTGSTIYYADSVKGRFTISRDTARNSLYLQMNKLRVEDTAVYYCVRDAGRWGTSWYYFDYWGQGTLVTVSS VL: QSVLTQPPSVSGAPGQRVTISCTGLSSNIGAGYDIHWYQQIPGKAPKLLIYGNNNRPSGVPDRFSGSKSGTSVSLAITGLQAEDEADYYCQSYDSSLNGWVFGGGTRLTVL
Response: 0.5
